# methodNotes: NCI Yeast Anticancer Drug Screen. Data for the mec2-1 strain (AID 157)
# experimentalContext: S. cerevisiae mec2-1 strain, at 11.0 µM
The panel holds about 79,000 compounds, 15% with a hit somewhere; the sample as a whole holds those more often. Calls of active or inactive are those of the source. No stated cut-off is given here; in the data, active means growth inhibition above about 70%; inactive means the rest.
Could you please pick one outcome from this set? active, inactive

Some solved entries appear below for comparison.
{"compound": "CCN(CC)CCBr", "labelClass": "inactive"}
{"compound": "O=[N+]([O-])c1cc(S(=O)(=O)F)ccc1Cl", "labelClass": "inactive"}
{"compound": "C[C@]12CCc3nonc3C1CC[C@@H]1C2CC[C@]2(C)C(=O)CCC12 (stereo partly specified)", "labelClass": "inactive"}
{"compound": "COC(=O)C1C2c3ccccc3C(c3ccccc32)C1C(=O)OC (stereo unspecified)", "labelClass": "inactive"}
{"compound": "O=[N+]([O-])c1oc2ccc3ccccc3c2c1CCO", "labelClass": "active"}

We now examine a further compound.
Just curious, what result did "CC1=C(N2CC2)C(=O)c2ccccc2C1=O" get here? inactive
